# reported pIC50; entries follow
target-or-test-system: PI3Kα (Homo sapiens, UniProt P42336)
Sequence (P42336 whole entry): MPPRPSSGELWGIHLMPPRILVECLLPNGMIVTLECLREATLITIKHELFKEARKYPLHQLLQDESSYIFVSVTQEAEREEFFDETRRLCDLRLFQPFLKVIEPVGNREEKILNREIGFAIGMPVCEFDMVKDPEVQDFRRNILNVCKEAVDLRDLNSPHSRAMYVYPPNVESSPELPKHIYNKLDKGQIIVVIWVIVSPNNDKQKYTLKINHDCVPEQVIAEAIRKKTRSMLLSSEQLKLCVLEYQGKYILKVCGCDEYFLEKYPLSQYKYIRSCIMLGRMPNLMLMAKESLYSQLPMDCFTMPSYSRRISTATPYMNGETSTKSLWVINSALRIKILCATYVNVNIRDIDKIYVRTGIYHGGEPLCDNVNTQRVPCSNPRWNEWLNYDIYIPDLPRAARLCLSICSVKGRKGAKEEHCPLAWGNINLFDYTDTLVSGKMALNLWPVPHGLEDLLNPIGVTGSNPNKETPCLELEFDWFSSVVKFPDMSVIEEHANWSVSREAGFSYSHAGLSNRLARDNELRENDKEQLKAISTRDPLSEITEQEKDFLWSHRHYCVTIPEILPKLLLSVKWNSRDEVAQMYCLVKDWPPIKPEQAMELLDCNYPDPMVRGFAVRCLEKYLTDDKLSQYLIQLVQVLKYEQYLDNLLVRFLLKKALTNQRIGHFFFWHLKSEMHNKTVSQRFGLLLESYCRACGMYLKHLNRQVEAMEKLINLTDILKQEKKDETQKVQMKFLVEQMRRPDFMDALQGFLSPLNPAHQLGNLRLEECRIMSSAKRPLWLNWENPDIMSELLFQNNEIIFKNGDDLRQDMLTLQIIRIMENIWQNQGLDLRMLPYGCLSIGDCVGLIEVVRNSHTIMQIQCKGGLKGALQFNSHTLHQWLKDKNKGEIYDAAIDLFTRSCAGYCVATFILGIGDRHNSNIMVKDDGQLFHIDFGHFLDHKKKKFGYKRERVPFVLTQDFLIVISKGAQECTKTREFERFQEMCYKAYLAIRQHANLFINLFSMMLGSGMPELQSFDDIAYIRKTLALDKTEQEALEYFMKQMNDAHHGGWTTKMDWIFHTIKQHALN
Sequence (P27986 whole entry partner): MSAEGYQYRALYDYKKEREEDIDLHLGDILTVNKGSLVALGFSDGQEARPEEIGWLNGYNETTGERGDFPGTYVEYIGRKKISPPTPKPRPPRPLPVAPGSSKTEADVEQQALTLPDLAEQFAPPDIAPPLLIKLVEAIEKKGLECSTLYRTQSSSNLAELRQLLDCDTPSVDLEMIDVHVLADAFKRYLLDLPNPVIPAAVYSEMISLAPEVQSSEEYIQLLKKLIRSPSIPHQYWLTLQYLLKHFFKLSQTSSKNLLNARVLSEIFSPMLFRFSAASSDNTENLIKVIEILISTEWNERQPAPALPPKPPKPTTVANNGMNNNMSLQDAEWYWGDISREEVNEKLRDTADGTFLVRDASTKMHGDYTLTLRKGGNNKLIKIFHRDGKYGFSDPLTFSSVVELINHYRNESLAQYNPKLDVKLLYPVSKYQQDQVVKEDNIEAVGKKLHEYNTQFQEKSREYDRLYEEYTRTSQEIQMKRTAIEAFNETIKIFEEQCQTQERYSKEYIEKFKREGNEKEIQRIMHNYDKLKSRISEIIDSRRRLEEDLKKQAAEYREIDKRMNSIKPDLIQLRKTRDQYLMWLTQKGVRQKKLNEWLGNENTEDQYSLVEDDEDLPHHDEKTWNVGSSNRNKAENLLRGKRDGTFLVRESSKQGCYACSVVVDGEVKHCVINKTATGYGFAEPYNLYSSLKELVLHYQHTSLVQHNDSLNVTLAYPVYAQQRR
By convention, pIC50 is the negative base-10 log of a molar concentration.

compound	quantity-measured	reported-measurement
COC(=O)CNc1c(-c2ccc(OC)cc2OC)nc2ccccn12	pIC50	3.88

// switching to the query compound
Give the observed pIC50 of "COC(=O)c1ccn2c(NCCN3CCOCC3)c(-c3cccn3C)nc2c1" for PI3Kα (Homo sapiens, UniProt P42336). 3.64
